MEASUREMENT_TARGET: Leucine-rich repeat serine/threonine-protein kinase 2 (Homo sapiens, UniProt Q5S007, G2019S)
Sequence (Q5S007 whole entry G2019S, the tested form may be a part): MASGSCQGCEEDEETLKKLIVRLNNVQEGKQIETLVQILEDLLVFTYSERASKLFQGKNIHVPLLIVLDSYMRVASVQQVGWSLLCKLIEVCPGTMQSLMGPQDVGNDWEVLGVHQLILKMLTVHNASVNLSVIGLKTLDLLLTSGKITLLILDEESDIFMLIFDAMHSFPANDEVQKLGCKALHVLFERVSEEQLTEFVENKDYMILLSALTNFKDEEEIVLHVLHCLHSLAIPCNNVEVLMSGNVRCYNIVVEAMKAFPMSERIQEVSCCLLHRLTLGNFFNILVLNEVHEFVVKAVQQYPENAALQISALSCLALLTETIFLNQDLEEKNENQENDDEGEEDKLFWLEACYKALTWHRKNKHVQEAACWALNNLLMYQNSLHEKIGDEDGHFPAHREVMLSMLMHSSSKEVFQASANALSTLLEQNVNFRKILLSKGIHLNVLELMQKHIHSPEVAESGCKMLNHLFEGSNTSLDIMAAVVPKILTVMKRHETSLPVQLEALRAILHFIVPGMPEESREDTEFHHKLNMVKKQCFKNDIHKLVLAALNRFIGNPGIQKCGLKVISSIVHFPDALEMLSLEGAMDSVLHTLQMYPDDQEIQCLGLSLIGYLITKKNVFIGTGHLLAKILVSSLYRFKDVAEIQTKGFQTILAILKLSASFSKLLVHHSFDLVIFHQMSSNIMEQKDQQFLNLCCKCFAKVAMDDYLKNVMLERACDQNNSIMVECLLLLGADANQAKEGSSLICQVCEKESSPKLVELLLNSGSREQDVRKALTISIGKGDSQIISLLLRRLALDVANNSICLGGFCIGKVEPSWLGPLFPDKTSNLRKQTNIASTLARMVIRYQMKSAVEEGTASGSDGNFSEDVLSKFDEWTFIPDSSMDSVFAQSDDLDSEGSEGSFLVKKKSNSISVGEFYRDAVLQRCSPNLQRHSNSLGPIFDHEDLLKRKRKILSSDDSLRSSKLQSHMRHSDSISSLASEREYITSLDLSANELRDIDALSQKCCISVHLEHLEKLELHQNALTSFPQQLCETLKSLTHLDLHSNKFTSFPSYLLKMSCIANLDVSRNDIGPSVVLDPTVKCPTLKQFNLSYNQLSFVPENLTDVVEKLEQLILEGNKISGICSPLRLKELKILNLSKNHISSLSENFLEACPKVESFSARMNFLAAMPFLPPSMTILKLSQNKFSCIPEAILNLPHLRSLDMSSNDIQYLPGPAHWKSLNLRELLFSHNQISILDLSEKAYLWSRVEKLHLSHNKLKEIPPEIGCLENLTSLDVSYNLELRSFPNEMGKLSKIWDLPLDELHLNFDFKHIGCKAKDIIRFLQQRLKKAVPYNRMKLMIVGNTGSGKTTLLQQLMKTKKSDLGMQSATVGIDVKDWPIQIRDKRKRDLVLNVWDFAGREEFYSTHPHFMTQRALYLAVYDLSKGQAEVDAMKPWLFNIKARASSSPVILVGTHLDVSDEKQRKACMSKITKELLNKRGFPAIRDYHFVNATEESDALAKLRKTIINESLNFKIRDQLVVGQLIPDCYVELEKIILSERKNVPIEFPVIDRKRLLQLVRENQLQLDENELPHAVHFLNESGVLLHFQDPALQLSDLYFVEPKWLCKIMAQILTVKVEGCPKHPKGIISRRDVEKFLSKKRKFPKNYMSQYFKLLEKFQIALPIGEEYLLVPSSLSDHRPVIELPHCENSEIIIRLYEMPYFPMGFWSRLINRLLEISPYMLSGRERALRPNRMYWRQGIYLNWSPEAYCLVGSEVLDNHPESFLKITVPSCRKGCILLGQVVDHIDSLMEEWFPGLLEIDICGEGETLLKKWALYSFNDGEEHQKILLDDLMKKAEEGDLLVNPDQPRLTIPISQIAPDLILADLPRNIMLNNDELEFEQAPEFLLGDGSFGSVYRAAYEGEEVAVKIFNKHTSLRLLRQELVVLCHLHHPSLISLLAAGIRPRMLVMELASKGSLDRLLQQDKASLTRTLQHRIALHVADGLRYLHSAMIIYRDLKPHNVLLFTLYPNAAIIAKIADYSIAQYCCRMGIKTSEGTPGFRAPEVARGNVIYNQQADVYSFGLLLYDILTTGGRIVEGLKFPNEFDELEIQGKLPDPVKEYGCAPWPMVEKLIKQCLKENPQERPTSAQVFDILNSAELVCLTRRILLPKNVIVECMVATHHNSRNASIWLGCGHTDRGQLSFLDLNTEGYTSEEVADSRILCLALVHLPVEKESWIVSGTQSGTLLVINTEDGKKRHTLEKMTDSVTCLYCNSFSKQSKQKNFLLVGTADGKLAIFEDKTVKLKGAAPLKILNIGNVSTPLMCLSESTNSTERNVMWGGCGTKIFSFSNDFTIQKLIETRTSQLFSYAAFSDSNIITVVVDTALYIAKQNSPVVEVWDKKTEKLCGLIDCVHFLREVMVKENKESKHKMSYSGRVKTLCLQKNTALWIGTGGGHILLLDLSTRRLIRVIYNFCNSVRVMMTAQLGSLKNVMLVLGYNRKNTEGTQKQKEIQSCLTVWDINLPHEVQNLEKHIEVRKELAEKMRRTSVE
TEST_SUMMARY: Inhibition of recombinant human GST-tagged LRRK2 G2019S mutant (970 to 2527 residues) expressed in insect cells using LRRKtide as substrate measured after 1 hr by Adapta TR-FRET assay
pIC50: −log10 of the molar value.
MEASURED_PARAMETER: pIC50

| MOLECULE | DATA_VALUE |
| --- | --- |
| Cc1ncsc1-c1ccc([C@H](C)NC(=O)[C@@H]2C[C@@H](O)CN2C(=O)[C@@H](NC(=O)CCOCCOCCOCCOCCC(=O)N2CCN(c3cc(-c4n[nH]c5ccc(OC6(C)CC6)cc45)ncn3)CC2)C(C)(C)C)cc1 | 8.40 |
| CC1(Oc2ccc3[nH]nc(-c4cc(N5CCN(C(=O)CCOCCOCCOCCOCCNc6cccc7c6C(=O)N(C6CCC(=O)NC6=O)C7)CC5)ncn4)c3c2)CC1 (centres undefined) | 8.52 |
| CC1(Oc2ccc3[nH]nc(-c4cc(N5CCN(C(=O)CCOCCOCCNc6cccc7c6C(=O)N(C6CCC(=O)NC6=O)C7=O)CC5)ncn4)c3c2)CC1 (centres undefined) | 9.00 |
| CC1(Oc2ccc3[nH]nc(-c4cc(N5CCN(C(=O)CCOCCNc6cccc7c6C(=O)N(C6CCC(=O)NC6=O)C7=O)CC5)ncn4)c3c2)CC1 (centres undefined) | 9.00 |
| CC1(Oc2ccc3[nH]nc(-c4cc(N5CCN(C(=O)CCOCCOCCNc6cccc7c6C(=O)N(C6CCCNC6=O)C7=O)CC5)ncn4)c3c2)CC1 (centres undefined) | 8.70 |
| CC1(Oc2ccc3[nH]nc(-c4cc(N5CCN(C(=O)CCOCCOCCNc6cccc7c6C(=O)N(C6CCC(=O)NC6=O)C7)CC5)ncn4)c3c2)CC1 (centres undefined) | 8.70 |
| CC1(Oc2ccc3[nH]nc(-c4cc(N5CCN(C(=O)CCOCCOCCOCCOCCNc6cccc7c6C(=O)N(C6CCC(=O)NC6=O)C7=O)CC5)ncn4)c3c2)CC1 (centres undefined) | 9.00 |
| Cc1ncsc1-c1ccc([C@@H](C)NC(=O)[C@H]2C[C@H](O)CN2C(=O)[C@H](NC(=O)CCOCCOCCOCCC(=O)N2CCN(c3cc(-c4n[nH]c5ccc(OC6(C)CC6)cc45)ncn3)CC2)C(C)(C)C)cc1 | 8.15 |
| CC1(Oc2ccc3[nH]nc(-c4cc(N5CCN(C(=O)CCOCCNc6cccc7c6C(=O)N(C6CCC(=O)NC6=O)C7)CC5)ncn4)c3c2)CC1 (centres undefined) | 8.70 |
